system: BEAS2B cells; test: Poly I:C-induced ICAM-1 induction in BEAS2B cells; type: cell-based; details: Homo sapiens, BEAS-2B; Table 3; read-out: BEAS2B (polyIC) ICAM1 IC50
Result type: IC50

// known answers, use as guide
INSERT INTO results (smiles_code, test_result) VALUES
  ('Cc1ccc(-n2nc(C(C)(C)C)cc2NC(=O)Nc2ccc(Oc3ccnc(NC(=O)N4CCCCC4)c3)c3ccccc23)cc1', '< 10 nM'),
  ('Cc1ccc(-n2nc(C(C)(C)C)cc2NC(=O)Nc2ccc(Oc3ccnc(NC(=O)NC4CC4)c3)c3ccccc23)cc1', '< 5000 nM'),
  ('CNC(=O)Nc1cc(Oc2ccc(NC(=O)Nc3cc(C(C)(C)C)nn3-c3ccc(C)cc3)c3ccccc23)ccn1', '< 10 nM'),
  ('Cc1ccc(-n2nc(C(C)(C)C)cc2NC(=O)Nc2ccc(Oc3ccnc(NC(=O)N4CCCC4)c3)c3ccccc23)cc1', '< 10 nM');

Now turn to the next molecule.
Recorded IC50 of `Cc1ccc(-n2nc(C(C)(C)C)cc2NC(=O)Nc2ccc(Oc3ccnc(NC(=O)N4CCC(O)CC4)c3)c3ccccc23)cc1` , please.
< 10 nM

====

IC50 for assorted compounds
target: p38 MAPK alpha (MAPK14) (Homo sapiens); construct: purchased Invitrogen; assay: Enzyme inhibition assay, p38 MAPK alpha (FRET, Z-LYTE, via MAPKAP-K2); format: biochemical; conditions: Table 2; read-out: Enzyme p38α IC50

# annotated cases, reported IC50 shown
INSERT INTO assay_data (smiles_code, test_result) VALUES
  ('COCC(=O)Nc1cc(Oc2ccc(NC(=O)Nc3cc(C(C)C)nn3-c3ccc(C)cc3)c3ccccc23)ccn1', '< 10 nM'),
  ('COCCNCC(=O)Nc1cc(Oc2ccc(NC(=O)Nc3cc(C(C)(C)C)nn3-c3ccc(C)cc3)c3ccccc23)ccn1', '< 10 nM');

Bench note: what IC50 did `Cc1ccc(-n2nc(C(C)(C)C)cc2NC(=O)Nc2ccc(Oc3ccnc(NC(=O)CN(C)C)c3)c3ccccc23)cc1` show?
< 10 nM

====

tested on: BEAS2B cells; test: Poly I:C-induced ICAM-1 induction in BEAS2B cells; format: cell-based; conditions: Homo sapiens, BEAS-2B; Table 2; read-out: BEAS2B (polyIC) ICAM1 IC50
pIC50: −log10 of the molar value.
The entries below are paired with their reported pIC50.

INSERT INTO measurements (molecule, test_result) VALUES
  ('Cc1ccc(-n2nc(C(C)(C)C)cc2NC(=O)Nc2ccc(Oc3ccnc(NC(=O)CNC(=O)C4CCOCC4)c3)c3ccccc23)cc1 [Example 16]', '> 8.00'),
  ('COCC(=O)NCC(=O)Nc1cc(Oc2ccc(NC(=O)Nc3cc(C(C)(C)C)nn3-c3ccc(C)cc3)c3ccccc23)ccn1 [Example 15]', '> 8.00');

Consider the record given below.
Recorded pIC50 of Cc1ccc(-n2nc(C(C)(C)C)cc2NC(=O)Nc2ccc(Oc3ccnc(NC(=O)CN(C)C)c3)c3ccccc23)cc1 [Example 12] , please.
> 5.30

====

Examples of compounds with documented pIC50 follow.
biological target: p38 MAPK alpha (MAPK14) (Homo sapiens, UniProt Q16539); construct: purchased Invitrogen; experiment: Enzyme inhibition assay, p38 MAPK alpha (FRET, Z-LYTE, via MAPKAP-K2); type: biochemical; conditions: Table 1; read-out: Enzyme p38α IC50
Sequence (Q16539 whole entry): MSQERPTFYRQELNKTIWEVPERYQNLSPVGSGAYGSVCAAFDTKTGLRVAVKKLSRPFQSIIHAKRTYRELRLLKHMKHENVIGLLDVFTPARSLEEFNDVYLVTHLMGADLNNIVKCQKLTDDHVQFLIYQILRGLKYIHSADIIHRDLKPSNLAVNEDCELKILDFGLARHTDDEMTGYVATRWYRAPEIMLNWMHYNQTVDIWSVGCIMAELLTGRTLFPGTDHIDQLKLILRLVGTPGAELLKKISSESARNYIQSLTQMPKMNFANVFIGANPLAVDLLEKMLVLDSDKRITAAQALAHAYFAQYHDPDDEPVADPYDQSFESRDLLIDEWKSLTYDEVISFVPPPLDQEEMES
pIC50: −log10 of the molar value.

Please review the following examples before continuing.
INSERT INTO measurements (smiles_code, test_result) VALUES
  ('Cc1ccc(-n2nc(C(C)(C)C)cc2NC(=O)Nc2ccc(Oc3ccnc(NC(N)=O)n3)c3ccccc23)cc1', '> 5.30'),
  ('Cc1ccc(-n2nc(C(C)(C)C)cc2NC(=O)Nc2ccc(Oc3ccnc(NC(=O)N(C)C)n3)c3ccccc23)cc1', '> 8.00'),
  ('Cc1ccc(-n2nc(C(C)(C)C)cc2NC(=O)Nc2ccc(Oc3ccnc(NC(=O)NC4CC4)n3)c3ccccc23)cc1', '> 8.00'),
  ('COCC(=O)Nc1cc(Oc2ccc(NC(=O)Nc3cc(C(C)(C)C)nn3-c3ccc(C)cc3)c3ccccc23)ncn1', '> 8.00'),
  ('COCC(=O)Nc1nccc(Oc2ccc(NC(=O)Nc3cc(C(C)(C)C)nn3-c3ccc(C)cc3)c3ccccc23)n1', '> 5.30');

Looking for the measured pIC50 of `CNC(=O)Nc1nccc(Oc2ccc(NC(=O)Nc3cc(C(C)(C)C)nn3-c3ccc(C)cc3)c3ccccc23)n1` , can you help?
> 5.30
